Where do the numbers come from? From PubChem BioAssay.

Experiment: OD615 S. cerevisiae growth inhibition, permissive medium, pilot counter-assay, permissive growth control for S. cerevisiae lifespan shortening project (AID 705)
Settings: OD615, 24 h, at 10 µM, stronger effect = higher value
Measured Quantity: growth inhibition (%)
Value expressed in %; do not type the unit.

- Compound: "Cc1noc(/C=C/N(C)C)c1S(=O)(=O)N1CCN(c2ccccc2)CC1"
  Quantitative Readout: -14.8
- Compound: "O=C(NCCCN1CCCC1)c1ccc(CS(=O)(=O)c2ccc(Br)cc2)o1"
  Quantitative Readout: -5.7
- Compound: "CC(CCc1ccco1)NC(=O)Cn1ncc2c(=O)oc3ccccc3c21 (stereo not given)"
  Quantitative Readout: -15.7

Ask: State the recorded growth inhibition for this entry: O=C(CCn1c(=O)oc2ccccc21)NCCCN1CCCC1=O
Reply: 4.51

Ask: Item: C=CCn1c(C(C)NC(=O)CCC)nc2ccccc21 (stereo not given)
Reply: 0.415

====

Test: growth suppression of beta-catenin knockout HCT116, pilot screen, human colon tumor cells (AID 823);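 further: 0% = wells killed by 20 µM Hyamine and 100% = untreated DMSO cell wells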
Settings: CellTiter-Glo, 60 h, at 10 µM, stronger effect = lower value
Results filed as inconclusive are left out.
Measured Quantity: viability (%)
Value expressed in %; do not type the unit.

- Smiles String: "Cc1ccc(C(C)C)c(OCc2nc(-c3nonc3N)no2)c1"
  Quantitative Readout: 88.3
- Smiles String: "Cc1ccc(OCC(=O)O)c(-n2nc3ccccc3n2)c1"
  Quantitative Readout: 89.9
- Smiles String: "CC(C)Sc1nc2c(cnn2-c2ccc(F)cc2)c(=O)[nH]1"
  Quantitative Readout: 90.7

Moving on to another compound below.
Ask: State the recorded viability for this entry: Cc1cc(C)c2c(N)c(C(=O)Nc3nccs3)sc2n1
Reply: 87.8

====

Experiment: OD615 S. cerevisiae growth inhibition, permissive medium, pilot counter-assay, permissive growth control for S. cerevisiae lifespan shortening project (AID 705)
Settings: OD615, 24 h, at 10 µM, stronger effect = higher value
Measured Quantity: growth inhibition (%)
Value expressed in %; do not type the unit.

- Molecule: "CC(=O)c1ccc(OCC(O)CN2C(C)(C)CC(O)CC2(C)C)cc1 (stereo not given)"
  Quantitative Readout: -16.9
- Molecule: "Cc1cc(C(=O)NC2CCCC2)on1"
  Quantitative Readout: -11.8
- Molecule: "CCCC(=O)N1CC(=O)Nc2ccc(F)cc2C1c1ccccc1 (stereo not given)"
  Quantitative Readout: -5.99
- Molecule: "Cc1ccoc1C(=O)NCc1occc1C(=O)O"
  Quantitative Readout: -12.6
- Molecule: "COc1ccccc1NC(=O)CCNC(=O)Cn1ccc2ccccc2c1=O"
  Quantitative Readout: -12.7
- Molecule: "CC(=Nc1ccc(C)c(C)c1)C1=C(O)CSC1=O"
  Quantitative Readout: 1.08
- Molecule: "COc1ccc(S(=O)(=O)N2Cc3ccccc3CC2C(=O)O)cc1OC (stereo not given)"
  Quantitative Readout: 6.5
- Molecule: "CCCCCOC(=O)C1=C(C)NC(=O)NC1c1ccccc1OCC (stereo not given)"
  Quantitative Readout: -2.38
- Molecule: "CCC(=O)Nc1nc2ccc3nc(C)sc3c2s1"
  Quantitative Readout: -5.17

Ask: State the recorded growth inhibition for this entry: NC(=O)c1nc(C2CCCCC2)nc2c1[nH]c(=O)n2-c1ccc(F)cc1
Reply: -13.1

====

Experiment: growth suppression of PTEN-deleted HCT116, pilot screen, cell-based, HCT116 clonal line, CellTiter-Glo (AID 824);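 further: 0% = 20 µM Hyamine control and 100% = vehicle cell control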
Conditions: 60 h, at 10 µM, stronger effect = lower value
Records with an inconclusive call do not appear.
// classify: if (viability < 90%) YES else NO

- Molecule: "COC(=O)C1=CN(CCCN2CCCC2=O)C=C(C(=O)OC)C1c1ccccc1C(F)(F)F"
  Cat: "YES"
- Molecule: "CC(C)c1ccc(NC(=O)C(c2ccccc2)N2CCOCC2)cc1 (configuration not stated)"
  Cat: "YES"
- Molecule: "CC(C)c1nnc(NC(=O)c2ccc(S(=O)(=O)N3CCOCC3)cc2)s1"
  Cat: "NO"
- Molecule: "COc1cccc(C2CC(=O)N3CN(c4cccc(Cl)c4C)CSC3=C2C#N)c1OC (configuration not stated)"
  Cat: "YES"
- Molecule: "O=C(CCc1ccccc1)Nc1nnc(-c2cccs2)o1"
  Cat: "NO"
- Molecule: "Cc1nc2cc(C(=O)O)ccc2n1-c1ccccc1"
  Cat: "NO"
- Molecule: "[O-]/[N+](=C/c1cccnc1)c1ccc(Br)cc1"
  Cat: "NO"
- Molecule: "O=C(O)CCCCCN1C(=O)C(=O)/C(=C(/O)c2ccccc2)C1c1ccccc1 (configuration not stated)"
  Cat: "NO"
- Molecule: "OC(COc1cccc2ccccc12)CN1CCN(c2ccccn2)CC1 (configuration not stated)"
  Cat: "YES"
- Molecule: "COc1ccc(C)c2sc(=NC(=O)c3ccc(C#N)cc3)n(C)c12"
  Cat: "YES"

Please find the next molecule below.
Ask: Quick check: viability of CC(=O)N(CCCN(C)C)CCC(C)CCC=C(C)C (configuration not stated) under 90%?
Reply: NO

====

Recorded measurements of RAM network inhibition, one per entry
Experiment: RAM signaling pathway blockade in yeast – S. cerevisiae, Pdr1DBD-CYC8 efflux-inhibited sensitized strain, primary screen (AID 1298);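 further: 0% = DMSO untreated cells without growth and 100% = 10 µM 1-NA-PP1 full growth; higher means more yeast growth rescued from 5-FOA killing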
Details: S. cerevisiae cbk1-as DSE1-URA3 strain, 5-FOA growth OD615, 2 d; at 50 µM; stronger effect = higher value
Activity calls are given as the source filed them.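 How the source made its calls: active means RAM network inhibition above 8.4% in each of two replicates, 3 SD over the compound average; inconclusive means above 8.4% inhibition in only one replicate; inactive means 8.4% inhibition or less in each replicate.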

Recorded RAM network inhibition, per entry:
- Molecule: "CC1CN(CCC(=O)Nc2ccc3c(c2)CCC3)CC(C)O1 (stereo not drawn)"
  RAM network inhibition: "6.16% (inactive)"
- Molecule: "O=C(CN1CCN(CC(=O)Nc2ccccn2)CC1)Nc1ccccn1"
  RAM network inhibition: "6.03% (inactive)"

Moving on to another molecule below.
Ask: State the recorded RAM network inhibition for this entry: O=C1c2ccccc2C(O)N1Cc1ccco1 (stereo not drawn)
Reply: 0.68% (inactive)

====

Assay: inhibitors of the yeast RAM network, pilot screen, dse1pr::URA3 reporter, 5-FOA selection (AID 869);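 further: 0% = DMSO wells with no growth and 100% = 10 µM 1-NA-PP1 with full growth; RAM network block rescues cells from 5-FOA so hits raise OD615 growth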
Settings: S. cerevisiae dse1pr::URA3 5-FOA growth, OD615, 2 d; at 10 µM; stronger effect = higher value; strain carries analog-sensitive mutant Cbk1 kinase
Measured Quantity: inhibition (%)
Value expressed in %; do not type the unit.

Recorded inhibition, per entry:
- Molecule: "O=C(C(Cc1ccccc1)n1cccc1)N1CCc2ccccc21 (configuration not stated)"
  Output Unit: "%"
  inhibition: 2.29
- Molecule: "CCC(=O)N=c1sc2c(OC)ccc(OC)c2n1C"
  Output Unit: "%"
  inhibition: 1.68
- Molecule: "O=C(NCCCn1ccnc1)c1cc(C2CC2)on1"
  Output Unit: "%"
  inhibition: 1.95
- Molecule: "CN(Cc1ccccc1)C(=O)CCC(=O)N(C)Cc1ccccc1"
  Output Unit: "%"
  inhibition: 0.97
- Molecule: "Cc1cc(OCC(=O)N(C)C)c2c(-c3ccccc3)cc(=O)oc2c1"
  Output Unit: "%"
  inhibition: 0.915
- Molecule: "CCOC(=O)c1c(C)c(-c2ccccc2)n(CC(=O)N2CCN(C)CC2)c1C"
  Output Unit: "%"
  inhibition: 2.83

Ask: State the recorded inhibition for this entry: CCC(=O)Nc1nc2ccccc2n1CCN1CCOCC1
Reply: -0.285

Ask: Item: Brc1ccc(-c2nnc3sc(CNC4CCCC4)cn23)cc1
Reply: 1.58

Ask: Item: O=C(NC1CCS(=O)(=O)C1)C1CCCCN1S(=O)(=O)c1ccc(Cl)cc1 (configuration not stated)
Reply: 1.53

====

Experiment: growth suppression of PTEN-deleted HCT116, pilot screen, cell-based, HCT116 clonal line, CellTiter-Glo (AID 824);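 further: 0% = 20 µM Hyamine control and 100% = vehicle cell control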
Conditions: 60 h, at 10 µM, stronger effect = lower value
Inconclusive results are not listed.
Recorded measurements of viability, one per entry
Value expressed in %; do not type the unit.

- Molecule: "CCCS(=O)(=O)NCCc1cc2ccc(OC)cc2[nH]c1=O"
  viability, %: 90.1
- Molecule: "Cc1c(N2C(=O)CSC23C(=O)Nc2ccccc23)c(=O)n(-c2ccccc2)n1C (stereo not given)"
  viability, %: 91.8
- Molecule: "O=c1cc(-c2ccccc2Cl)c2c([nH]1)CCC2"
  viability, %: 87.2
- Molecule: "CCN1CCN(C(=O)c2cc3c(s2)-c2ccccc2S(=O)(=O)C3)CC1"
  viability, %: 92.5
- Molecule: "Cn1c(=O)c2c(nc(SCCN3CCOCC3)n2Cc2ccc(Cl)cc2)n(C)c1=O"
  viability, %: 84.1
- Molecule: "CNC(=O)c1cc2cc(OC)ccc2n1CCN(C)C"
  viability, %: 87.2

Ask: State the recorded viability for this entry: CC1=C(C(=O)OCc2ccccc2)C(c2ccc(N3CCOCC3)cc2)NC(=O)N1 (stereo not given)
Reply: 98.9

Ask: Item: COCCNS(=O)(=O)c1cccc2cccnc12
Reply: 92.2

Ask: Item: Cc1sc2nc(SCC(=O)OC(C)C)n(C)c(=O)c2c1C
Reply: 94.8

Ask: Item: Nc1ccccc1SCc1cn2cccnc2n1
Reply: 98

Ask: Item: Cc1occc1-c1nnc2sc(-c3ccc(-c4ccc(Cl)cc4)o3)nn12
Reply: 95.8

Ask: Item: CCOC(=O)N1CCN(C(=O)c2cnn3ccccc23)CC1
Reply: 100

Ask: Item: COc1cc(C(c2sc3nc(C)nn3c2O)N2CCc3ccccc3C2)cc(OC)c1OC (stereo not given)
Reply: 96.1

Ask: Item: CCOc1ccc(N2CC(C(=O)NCCC3=CCCCC3)CC2=O)cc1 (stereo not given)
Reply: 93.8

Ask: Item: O=C1c2ccccc2C(O)N1Cc1ccco1 (stereo not given)
Reply: 94.6

Ask: Item: COc1ccc(-n2c(Cn3c(=O)sc4ccccc43)nnc2SCC(N)=O)cc1
Reply: 101

Ask: Item: C=CCOn1c(=O)c(C)[n+]([O-])c2ccccc21
Reply: 98.2

Ask: Item: Cc1noc(C)c1S(=O)(=O)N(CC(=O)NCc1ccc2c(c1)OCO2)c1ccc(C(C)C)cc1
Reply: 76.2

Ask: Item: CC(=O)Oc1cccc(N2C(=O)C3C(C2=O)C2C=CC3C23CC3)c1 (stereo not given)
Reply: 101

Ask: Item: CCOC(=O)N1CCC(NC(=O)Cn2nc(Cc3ccncc3)c3ccccc3c2=O)CC1
Reply: 95.7

Ask: Item: COc1ccccc1C(=O)Nc1nnc(-c2ccc(F)cc2)o1
Reply: 101

Ask: Item: CCP(=O)(c1ccccc1)C(C)(C)O (stereo not given)
Reply: 93.9
